Molecular target: Beta-lactamase (Escherichia coli K-12)
Sequence (P00811 whole entry): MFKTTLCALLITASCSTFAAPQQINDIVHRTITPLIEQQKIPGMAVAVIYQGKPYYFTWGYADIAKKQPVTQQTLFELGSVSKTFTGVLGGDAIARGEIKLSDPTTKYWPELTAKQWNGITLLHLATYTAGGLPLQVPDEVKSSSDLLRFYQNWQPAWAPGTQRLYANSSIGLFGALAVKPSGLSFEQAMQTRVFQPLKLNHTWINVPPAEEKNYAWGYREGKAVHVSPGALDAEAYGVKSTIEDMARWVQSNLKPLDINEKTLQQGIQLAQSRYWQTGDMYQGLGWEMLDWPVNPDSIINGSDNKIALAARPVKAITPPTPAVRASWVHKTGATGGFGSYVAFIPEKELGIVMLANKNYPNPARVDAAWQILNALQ
Assay: Inhibition of Beta-Lactamase Enzymes: A buffer consisting of 0.1 M sodium phosphate (pH 7.0), 10 mM NaHCO3, and 0.005% Triton X-100 was used for all enzymes. The chromogenic substrate nitrocefin (SynGene, Bangalore, India) was used at 100 μM. Enzyme activity was monitored by the 490 nm absorbance increase upon nitrocefin hydrolysis. Assays were performed in clear polystyrene 384-well plates (Greiner Bio-One, Monroe, N.C.). Absorbance was measured for 1 hour at 30-s intervals using a Spectramax absorbance plate reader (Molecular Devices, Sunnyvale, Calif.). Measurement of beta-lactamase inhibition by INHIBITOR employed serial 3-fold dilutions of the inhibitor in assay buffer, ranging from 100 μM to 62.7 pM. A background absorbance progress curve for a control lacking enzyme and inhibitor was subtracted from each progress curve.
Threshold 50 nM. IC50 below it: Criterion met. IC50 at it or above: Criterion not met.

Identify whether the molecule CC1=C[C@@H]2CN(C(=O)N2OC(F)C(=O)O)[C@@H]1c1nnc(C(N)=O)o1 (stereo partly drawn) records IC50 below 50 nM.
Criterion not met

Please give the result for CC1=C[C@@H]2CN(C(=O)N2O[C@@H](F)C(=O)O)[C@@H]1C(=O)NCc1ncco1 too.
Criterion met

Follow-up entry: CC1=C[C@@H]2CN(C(=O)N2O[C@@H](F)C(=O)O)[C@@H]1C(=O)NC1COC1
Criterion not met

// next record CC1=C[C@@H]2CN(C(=O)N2O[C@@H](F)C(=O)O)[C@@H]1C(=O)NOC[C@@H]1CC(F)(F)CN1
Criterion met

Entry CC1=C[C@@H](C(N)=O)N2C[C@@H]1N(O[C@H](F)C(=O)O)C2=O please
Criterion not met

Same question, CC1=C[C@@H]2CN(C(=O)N2O[C@@H](F)C(=O)O)[C@@H]1C(=O)NCNS(N)(=O)=O this time
Criterion met

Repeat for the following molecule: CC1=C[C@@H]2CN(C(=O)N2OC(F)(F)C(=O)O)[C@@H]1C(N)=O
Criterion met

Another molecule to check: CC1=C[C@@H]2CN(C(=O)N2O[C@@H](F)C(=O)O)[C@@H]1C(N)=O
Criterion not met

Also CC1=C[C@@H]2CN(C(=O)N2O[C@@H](F)C(=O)O)[C@@H]1C(=O)NCc1cnccn1 , if possible.
Criterion met

Request: CC1=C[C@@H](C(N)=O)N2C[C@@H]1N(OCC(=O)O)C2=O
Criterion not met

Thanks! And O=C(O)C(F)ON1C(=O)N2C[C@H]1CC[C@H]2C(=O)NC1CCNCC1 (stereo partly drawn) ?
Criterion not met

Input NC(=O)[C@@H]1C(C2CC2)=C[C@@H]2CN1C(=O)N2O[C@H](F)C(=O)O
Criterion met

Now give it for CC1=C[C@@H]2CN(C(=O)N2O[C@@H](F)C(=O)O)[C@@H]1C(=O)NCC#N too.
Criterion met

Item: CC1=C[C@@H]2CN(C(=O)N2O[C@@H](F)C(=O)O)[C@@H]1C(=O)NCCCS(N)(=O)=O
Criterion met

Now give it for CC1=C[C@@H](C#N)N2C[C@@H]1N(O[C@H](F)C(=O)O)C2=O too.
Criterion not met

Likewise for CC1=C[C@@H]2CN(C(=O)N2O[C@@H](F)C(=O)O)[C@@H]1C(=O)NCC[C@@H]1CCC(=O)N1 ?
Criterion met

And what about the molecule CC1=C[C@@H]2CN(C(=O)N2OC(C)(F)C(=O)O)[C@@H]1C(N)=O (mixture of isomers) ?
Criterion not met

Next entry: CC1=C[C@@H]2CN(C(=O)N2OC(F)C(=O)O)[C@@H]1C(N)=O (mixture of isomers)
Criterion met
